# System: KRAS PDC multicell spheroid viability;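 further: spheroids exposed to compounds for 7 days; 100% = DMSO vehicle control viability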
# protocol-details: Anticancer human tumor 825966-067-R-J1-PDC patient-derived colon carcinoma cell line growth inhibition [KRAS2]
# measurement-conditions: second compound 10 µM; first compound 3.16 µM; stronger effect = lower value
Labelling field: enter 1 if recorded viability, T/C is less than 10%. Enter -1 if it equals or exceeds that cut-off.

Solved entries:
INSERT INTO results (molecule, label) VALUES
  ('CCNC(=O)CC1N=C(c2ccc(Cl)cc2)c2cc(OC)ccc2-n2c(C)nnc21 (stereo not given) + COc1cc2nc(C)nc(NC(C)c3cc(N)cc(C(F)(F)F)c3)c2cc1OC1CCOC1', -1),
  ('CC(C)NCC(C(=O)N1CCN(c2ncnc3c2C(C)CC3O)CC1)c1ccc(Cl)cc1 (stereo not given) + COc1cc2nc(C)nc(NC(C)c3cc(N)cc(C(F)(F)F)c3)c2cc1OC1CCOC1', 1),
  ('COc1cc(Nc2ncc3c(n2)-c2ccc(Cl)cc2C(c2c(F)cccc2OC)=NC3)ccc1C(=O)O + CC1OCC2(CCN(c3cnc(Sc4ccnc(N)c4Cl)c(N)n3)CC2)C1N', -1),
  ('COC(=O)c1ccc2c(C(=Nc3ccc(N(C)C(=O)CN4CCN(C)CC4)cc3)c3ccccc3)c(O)[nH]c2c1 + CC1OCC2(CCN(c3cnc(Sc4ccnc(N)c4Cl)c(N)n3)CC2)C1N', 1);

Okay, now this molecule:
viability, T/C under 10%? Item: Cn1nccc1Nc1nccc(-c2cc3c(s2)C(C)(C)N(CCN2CCOCC2)C3=O)n1 + C=CC(=O)N1CCN(c2nc(=O)n(-c3c(C)ccnc3C(C)C)c3nc(-c4c(O)cccc4F)c(F)cc23)C(C)C1
-1
